Listed here are molecules together with their documented residual activity.
molecular target: Ribosomal protein S6 kinase alpha-5 (Homo sapiens); settings: at 10 µM
Please give a number only; it is taken to be in %.

Worked examples, 5 molecules total:
{"columns": ["molecule", "targetSystem", "numericResult"],
 "data": [
  ["Oc1ccc(-c2nc(-c3ccc(F)cc3)c(-c3ccncc3)[nH]2)cc1", "Ribosomal protein S6 kinase alpha-5 (Homo sapiens)", 98],
  ["CCC(=O)Nc1ccc2ncnc(Nc3cccc(Br)c3)c2c1", "Ribosomal protein S6 kinase alpha-5 (Homo sapiens)", 112],
  ["Cc1cc2ncc(-c3ccccc3)nc2cc1C", "Ribosomal protein S6 kinase alpha-5 (Homo sapiens)", 103],
  ["Nc1ccc2ncnc(NCCc3ccc(Oc4ccccc4)cc3)c2c1", "Ribosomal protein S6 kinase alpha-5 (Homo sapiens)", 111],
  ["N#C/C(=C(\\N)Sc1ccc(N)cc1)c1ccccc1C(F)(F)F", "Ribosomal protein S6 kinase alpha-5 (Homo sapiens)", 95]
]}

Now turn to the next molecule.
residual activity of Cc1cc(Nc2nc(-c3ccccc3)nc3ccccc23)n[nH]1 , assay on Ribosomal protein S6 kinase alpha-5 (Homo sapiens), is 39

* * *

biological target: Serine/threonine-protein kinase Nek11 (Homo sapiens); conditions: at 1 µM
Listed here are molecules together with their documented residual activity.
Please give a number only; it is taken to be in %.

{"columns": ["sampleSmiles", "unitsOfMeasure", "numericResult"],
 "data": [
  ["CN(C)CCCn1cc(C2=C(c3c[nH]c4ccccc34)C(=O)NC2=O)c2ccccc21", "%", 72],
  ["COc1ccc(OC)c2c(=S)c3ccccc3[nH]c12", "%", 70],
  ["Cc1cc(Nc2nc(-c3ccccc3)nc3ccccc23)n[nH]1", "%", 66],
  ["Oc1c2ccccc2c2c3c(cccc13)N=N2", "%", 50],
  ["Cc1nc(-c2ccccc2)c(-c2ccncc2)o1", "%", 81],
  ["CC[n+]1c(/C=C/N(C)c2ccccc2)n(-c2ccccc2)c2ccc(-c3nc4ccccc4s3)cc21", "%", 71]
]}

residual activity of Nc1nc(Nc2ccc(S(N)(=O)=O)cc2)nn1C(=S)Nc1c(F)cccc1F , assay on Serine/threonine-protein kinase Nek11 (Homo sapiens), is 51

residual activity of COc1ccc(C(=O)Nc2sc3c(c2C(N)=O)CCCC3)cc1OC , assay on Serine/threonine-protein kinase Nek11 (Homo sapiens), is 77

residual activity of O=C(O)c1ccc2c3c1cccc3c(=O)n1c3ccccc3nc21 , assay on Serine/threonine-protein kinase Nek11 (Homo sapiens), is 80

residual activity of COc1ccc(S(=O)(=O)N(CCO)c2ccccc2CN(C)C/C=C/c2ccc(Cl)cc2)cc1 , assay on Serine/threonine-protein kinase Nek11 (Homo sapiens), is 95

residual activity of O=c1cc(-c2cccc3c2Sc2ccccc2S3)oc(N2CCOCC2)c1 , assay on Serine/threonine-protein kinase Nek11 (Homo sapiens), is 93

residual activity of N#C/C(=C(\N)Sc1ccc(N)cc1)c1ccccc1C(F)(F)F , assay on Serine/threonine-protein kinase Nek11 (Homo sapiens), is 64

residual activity of O=C1NC(=O)c2cc(Nc3ccc(F)cc3)c(Nc3ccc(F)cc3)cc21 , assay on Serine/threonine-protein kinase Nek11 (Homo sapiens), is 70

residual activity of N#Cc1cnc2cnc(NCc3cccnc3)cc2c1Nc1ccc(F)c(Cl)c1 , assay on Serine/threonine-protein kinase Nek11 (Homo sapiens), is 88

residual activity of O=C1NC(=O)c2c1c1c3ccccc3[nH]c1c1[nH]c3cc(Br)ccc3c21 , assay on Serine/threonine-protein kinase Nek11 (Homo sapiens), is 62

residual activity of Cc1cncc2cccc(S(=O)(=O)N3CCCN(C(=O)CN)C[C@H]3C)c12 , assay on Serine/threonine-protein kinase Nek11 (Homo sapiens), is 88

residual activity of COc1cc2ncnc(Nc3ccc(Oc4ccccc4)cc3)c2cc1OC , assay on Serine/threonine-protein kinase Nek11 (Homo sapiens), is 100

residual activity of CNc1cc2c(Nc3cccc(Br)c3)ncnc2cn1 , assay on Serine/threonine-protein kinase Nek11 (Homo sapiens), is 109

residual activity of CC(C)n1cnc2/c(=N/c3cccc(Cl)c3)nc(NCCO)[nH]c21 , assay on Serine/threonine-protein kinase Nek11 (Homo sapiens), is 43

residual activity of Cc1cccc(-c2[nH]c(C(C)(C)C)nc2-c2ccc3c(c2)OCO3)n1 , assay on Serine/threonine-protein kinase Nek11 (Homo sapiens), is 80

residual activity of COc1ccc(CNc2nc(N(CCO)CCO)nc3c2ncn3C(C)C)cc1 , assay on Serine/threonine-protein kinase Nek11 (Homo sapiens), is 53

residual activity of CC#CC(=O)Nc1cc2c(Nc3ccc(F)c(Cl)c3)ncnc2cn1 , assay on Serine/threonine-protein kinase Nek11 (Homo sapiens), is 70

FYI, the data here is from ChEMBL document CHEMBL2218924.
